Entry source: PubChem BioAssay AID1159580

assay: chemical genetic growth profiling, strain panel (AID 1159580);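 further: tested at 20 µM; growth read once vehicle control cultures reached saturation at 30 °C; 1 = growth at the plate median or of vehicle wells; lower values mean less growth of the strain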; conditions: S. cerevisiae deletion strains, growth OD, locus YML120C, strain ndi1, hits give low values
Among all 5,500 compounds or so, about 2,000 (36%) were called active. Another 18% or so got no clear call; they are omitted. The list shows a part of the results.
endpoint: normalized growth
Answers are plain numbers.

Worked examples follow.
Request: State, in one line, measured normalized growth of C[n+]1cccc(C(=O)[O-])c1
Result: 0.968

Request: State, in one line, measured normalized growth of COc1ccccc1OCCNCC(O)COc1cccc2[nH]c3ccccc3c12 (stereo unspecified)
Result: 1.01

Request: State, in one line, measured normalized growth of C1CNCCN1
Result: 1

Request: State, in one line, measured normalized growth of CCCCC(CC)CN1CN(CC(CC)CCCC)CC(C)(N)C1 (stereo unspecified)
Result: 0.0565

Request: State, in one line, measured normalized growth of CC(=O)O[C@@H]1C[C@@]2(C)[C@H](c3ccoc3)C[C@H]3O[C@]32[C@]2(C)C(=O)C(O)=C3C(C)(C)C(=O)C=C[C@]3(C)C12 (stereo partly specified)
Result: 0.961

Request: State, in one line, measured normalized growth of Nc1ncnc2c1ncn2[C@@H]1O[C@H](CO)[C@@H](O)[C@H]1O
Result: 0.952

Request: State, in one line, measured normalized growth of CC1(C)C(C(Cl)Cl)C2(Cl)C(Cl)C(Cl)C1(Cl)C2(Cl)Cl (stereo unspecified)
Result: 0.983

Request: State, in one line, measured normalized growth of CS(=O)(=O)CCCCN=C=S
Result: 0.666

Quick one: give me normalized growth for each item below, same order please.
1. Nc1ccc(S(=O)(=O)Nc2ccc(Cl)nn2)cc1
2. COC(=O)C[C@H]1C(C)(C)C(=O)[C@@H]2CC3=C4CC(=O)O[C@@H](c5ccoc5)[C@]4(C)CCC3[C@@]1(C)C2=O (stereo partly specified)
3. CC(=O)O[C@@H]1CC2C(C)(C)C=CC(=O)[C@]2(C)C2CC[C@@]3(C)[C@H](c4ccoc4)OC(=O)C4OC43[C@@]21C (stereo partly specified)
4. O=C1C=CC2=C3c4cc(O)c(O)cc4C[C@@]3(O)COC2=C1

Result:
1: 0.983; 2: 0.995; 3: 1; 4: 0.983

----------
assay: chemical genetic growth profiling, strain panel (AID 1159580);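 further: tested at 20 µM; growth read once vehicle control cultures reached saturation at 30 °C; 1 = growth at the plate median or of vehicle wells; lower values mean less growth of the strain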; conditions: S. cerevisiae deletion strains, growth OD, locus YNL020C, strain ARK1, hits give low values
About 2,000 (36%) of roughly 5,500 compounds were called active. About 18% were inconclusive and are not listed. The list shows a part of the results.
Response field label: string, one of condition met (normalized growth strictly below 0.9) or condition not met.

// below: answered compounds
Request: Record CC(=O)c1sc(SCCS(=O)(=O)c2ccc(C)cc2)c2c1CC(C)(C)CC2=O : is its normalized growth strictly below 0.9?
Result: condition not met

Request: Record S=C(N/N=C\c1ccc(Cl)cc1)N/N=C\c1ccc(Cl)cc1 : is its normalized growth strictly below 0.9?
Result: condition met

Request: Record Cn1c(CSCCOc2ccccc2)nnc1SCc1ccc(Cl)cc1Cl : is its normalized growth strictly below 0.9?
Result: condition not met

Request: Record CCOc1ccc(/C=C(\C)[N+](=O)[O-])cc1OC : is its normalized growth strictly below 0.9?
Result: condition met

Request: Record Cc1cc(Br)ccc1-n1c(Sc2c([N+](=O)[O-])cc(C(F)(F)F)cc2[N+](=O)[O-])nc2ccccc2c1=O : is its normalized growth strictly below 0.9?
Result: condition not met

Others:
Request: Record CSc1cc(-c2ccncc2)nc(-c2cccs2)c1 : is its normalized growth strictly below 0.9?
Result: condition not met

Request: Record FC(F)(F)c1cccc(NC(=S)Nc2ccccc2)c1 : is its normalized growth strictly below 0.9?
Result: condition not met

Request: Record Fc1cccc(Cl)c1CSc1nncn1-c1ccc(OCc2ccccc2)cc1 : is its normalized growth strictly below 0.9?
Result: condition not met

Request: Record C=CCOc1ccc(/C=C/[N+](=O)[O-])cc1 : is its normalized growth strictly below 0.9?
Result: condition met

Request: Record O=C(c1ccccc1)c1cc(Cl)ccc1NC(=S)Nc1ccc(F)cc1 : is its normalized growth strictly below 0.9?
Result: condition not met

Request: Record O=C(NC(=O)c1c(F)cccc1Cl)OCc1ccc(Cl)cc1Cl : is its normalized growth strictly below 0.9?
Result: condition met

Request: Record Fc1cccc(F)c1NC(=S)Nc1cc(C(F)(F)F)cc(C(F)(F)F)c1 : is its normalized growth strictly below 0.9?
Result: condition not met

Request: Record CC(=O)Nc1ccc([N+](=O)[O-])cc1[N+](=O)[O-] : is its normalized growth strictly below 0.9?
Result: condition met

Request: Record O=C(Nc1ccc(C(F)(F)F)cc1)N1CCN(c2ccnc3cc(Cl)ccc23)CC1 : is its normalized growth strictly below 0.9?
Result: condition not met

Request: Record COC(=O)C1=C(C)NC(C)=C(C(=O)OC)C1c1ccc(Cl)cc1Cl : is its normalized growth strictly below 0.9?
Result: condition not met
